- TEST_SYSTEM: Aurora-A(h) (Homo sapiens)
- Construct: purchased Millipore (KinaseProfiler service); also Reaction Biology Corp. (Kinase Hotspot)
- Sequence (O14965 1-403): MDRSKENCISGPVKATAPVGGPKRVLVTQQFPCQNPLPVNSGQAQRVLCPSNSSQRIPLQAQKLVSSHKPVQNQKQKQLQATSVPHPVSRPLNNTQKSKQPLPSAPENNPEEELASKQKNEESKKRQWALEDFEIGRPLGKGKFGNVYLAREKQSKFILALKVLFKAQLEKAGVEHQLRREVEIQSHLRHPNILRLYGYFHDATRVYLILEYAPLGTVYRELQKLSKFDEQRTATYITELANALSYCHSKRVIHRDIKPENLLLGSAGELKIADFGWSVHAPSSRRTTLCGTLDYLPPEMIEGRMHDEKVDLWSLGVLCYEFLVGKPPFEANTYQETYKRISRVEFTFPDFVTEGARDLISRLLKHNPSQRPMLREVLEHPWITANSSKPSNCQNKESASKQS
- TEST_NAME: Aurora-A kinase assay (KinaseProfiler Service Assay Protocols, Millipore; also Kinase Hotspot, Reaction Biology Corp.)
- Format: biochemical
- RECORDED_CONDITIONS: compound concentration 1 μM
In this section we review reported inhibition at 1 µM values for a set of compounds.
MEASURED_PROPERTY: inhibition at 1 µM

QUERY_SMILES: CCN(CC)c1nc(Nc2ncc(C)s2)nc(Sc2ccc(NC(=O)C3CC3)cc2)n1
REPORTED_RESULT: > 50%
--
QUERY_SMILES: Cc1cc(Nc2nc(Sc3ccc(NC(=O)C4CC4)cc3)nc(N3CCOCC3)n2)n[nH]1
REPORTED_RESULT: > 90%
--
QUERY_SMILES: Cc1ccc(Nc2nc(Sc3ccc(NC(=O)C4CC4)cc3)nc(N3CCN(C)CC3)n2)nc1
REPORTED_RESULT: > 50%
--
QUERY_SMILES: CCC(=O)Nc1ccc(Sc2nc(Nc3cc(C4CC4)[nH]n3)nc(C3CC3)n2)cc1
REPORTED_RESULT: > 90%
--
QUERY_SMILES: CC(C)c1cc(Nc2nc(Sc3ccc(NC(=O)C4CC4)cc3)nc(N3CCN(C)CC3)n2)n[nH]1
REPORTED_RESULT: > 50%
--
QUERY_SMILES: Cc1cc(Nc2nc(Sc3ccc(NC(=O)C4CC4)cc3)nc(N(C)CCN(C)C)n2)n[nH]1
REPORTED_RESULT: > 50%
--
QUERY_SMILES: CCC(=O)Nc1ccc(Sc2nc(CC)nc(Nc3cc(C)[nH]n3)n2)cc1
REPORTED_RESULT: > 90%
--
QUERY_SMILES: CCC(=O)Nc1ccc(Sc2nc(C)nc(Nc3cc(C4CC4)[nH]n3)n2)cc1
REPORTED_RESULT: > 90%
--
QUERY_SMILES: Cc1cc(Nc2nc(Sc3ccc(NC(=O)C4CC4)cc3)nc(N3CCN(c4ccncc4)CC3)n2)n[nH]1
REPORTED_RESULT: > 90%
--
QUERY_SMILES: Cc1cnc(Nc2nc(N3CCN(C)CC3)nc(N3CCN(C)CC3)n2)s1
REPORTED_RESULT: < 50%
--
QUERY_SMILES: Cc1cnc(Nc2nc(Sc3ccc(NC(=O)C4CC4)cc3)nc(N3CCN(CCO)CC3)n2)s1
REPORTED_RESULT: > 90%
--
QUERY_SMILES: CN1CCN(c2nc(Nc3nc4ccccc4[nH]3)nc(Sc3ccc(NC(=O)C4CC4)cc3)n2)CC1
REPORTED_RESULT: > 50%
--
QUERY_SMILES: Cc1cnc(Nc2nc(Sc3ccc(NC(=O)c4ccccc4)cc3)nc(N3CCN(C)CC3)n2)s1
REPORTED_RESULT: > 90%
--
QUERY_SMILES: Cc1cnc(Nc2nc(Sc3ccc(NC(=O)C4CC4)cc3)nc(N3CCCCC3)n2)s1
REPORTED_RESULT: > 50%
--
QUERY_SMILES: CN1CCN(c2nc(Nc3nccs3)nc(Sc3ccc(NC(=O)C4CC4)cc3)n2)CC1
REPORTED_RESULT: < 50%
--
QUERY_SMILES: CCc1nc(Nc2cc(C)[nH]n2)nc(Sc2ccc(NC(=O)C3CC3)cc2)n1
REPORTED_RESULT: > 90%
--
QUERY_SMILES: Cc1cc(Nc2nc(Sc3ccc(NC(=O)C4CC4)cc3)nc(N3CCN(C)CC3)n2)sn1
REPORTED_RESULT: < 50%
--
QUERY_SMILES: CCCCNc1nc(Nc2cc(C)[nH]n2)nc(Sc2ccc(NC(=O)C3CC3)cc2)n1
REPORTED_RESULT: > 90%
--
QUERY_SMILES: Cc1cc(Nc2nc(Sc3ccc(NC(=O)C4CC4)cc3)nc(N3CCN(C)CC3)n2)n[nH]1
REPORTED_RESULT: > 90%
--
QUERY_SMILES: CCc1nc(Nc2ncc(C)s2)nc(N2CCN(C)CC2)n1
REPORTED_RESULT: < 50%

Every entry's value here was drawn from patent US20120172361A1.
